Where these numbers come from: patent US20200157248A1

molecular target: Fwt; experiment: ELISA, VHH on coated antibody
observation-type: ELISA OD
Remember to put the unit after the number in your answer.

As a guide, the following entries are already answered.
>>> measured("VHH clone 8G11 (VHH) VHH: EVQLVESGGGLVQAGGSLRLSCAASGRTFDIYTMGWFRQVPGKEREFVADIGRAGGTTHYADSVKGRFAISRDNANDAVHLQMNSLKPEDTAVYYCATKVVPRAGRRLLDYDYWGQGTQVTVSS")
"0.073 OD"
>>> measured("VHH clone 8G12 (VHH) VHH: EVQLVESGGGLVRAGGSLRLSCAASGSIFGTTNMGWYRQAPGTQRDLVATINNGGITNYADSVKGRFTISTDYTKNTVYLQMDRLKPEDTAVYYCNAEYHFRPPSWGQGTQVTVSS")
"0.063 OD"

// next entry
Given item VHH clone 8G1 (VHH) VHH: QVQLVESGGGLVQPGGSLRLSCRASGAIFSINHMGWYRQAPGKQRELVATITSGGSTNYADSVKGRFTISRDNAKNTVYLQMNSLKPEDTAVYSCNLDWTTGWGSRRDYWGQGTQVTVSS , the value recorded as its ELISA OD is 0.079 OD
